Reported viability, T/C values for the following molecules.
# Test system: 941728-121-R-J1-PDC complex spheroid viability
# ASSAY DETAILS: Anticancer human tumor 941728-121-R-J1-PDC patient-derived lung adenocarcinoma cell line growth inhibition [RAS]
# RECORDED CONDITIONS: second compound 1 µM; first compound 1 µM; stronger effect = lower value
MEASUREMENT KIND: viability, T/C (%)

* CC(C)NCC(C(=O)N1CCN(c2ncnc3c2C(C)CC3O)CC1)c1ccc(Cl)cc1 (stereo not given) + C#Cc1c(F)ccc2cc(O)cc(-c3ncc4c(N5CC6CCC(C5)N6)nc(OCC56CCCN5CC(F)C6)nc4c3F)c12 | 30.9
* C=CC(=O)N1CCN(c2nc(OCC3CCCN3C)nc3c(F)c(-c4nc(N)cc(C)c4C(F)(F)F)c(Cl)cc23)C(C)C1 (stereo not given) + C#Cc1c(F)ccc2cc(O)cc(-c3ncc4c(N5CC6CCC(C5)N6)nc(OCC56CCCN5CC(F)C6)nc4c3F)c12 | 22.5
* C[C@@H](NC(=O)c1ncnc(N)c1Cl)c1ncc(C(=O)Nc2cc(C(F)(F)F)c(Cl)cn2)s1 + C=CC(=O)N1CCN(c2nc(OCC3CCCN3C)nc3c(F)c(-c4nc(N)cc(C)c4C(F)(F)F)c(Cl)cc23)C(C)C1 | 22.5
* NC1c2ccccc2OC12CCN(c1cnc3c(N4CCCc5ncccc54)n[nH]c3n1)CC2 (stereo not given) + C=CC(=O)N1CCN(c2nc(OCC3CCCN3C)nc3c(F)c(-c4nc(N)cc(C)c4C(F)(F)F)c(Cl)cc23)C(C)C1 | 16.6
* O=C(c1ccc(F)c(F)c1Nc1ccc(I)cc1F)N1CC(O)([C@@H]2CCCCN2)C1 + C#Cc1c(F)ccc2cc(O)cc(-c3ncc4c(N5CC6CCC(C5)N6)nc(OCC56CCCN5CC(F)C6)nc4c3F)c12 | 20.8

---

Reported viability, T/C values for the following molecules.
# Tested on: 941728-121-R-J1-PDC complex spheroid viability
# ASSAY DETAILS: Anticancer human tumor 941728-121-R-J1-PDC cell line growth inhibition [RAS];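 note: spheroids exposed to compounds for 7 days before readout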;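 for viability, T/C: 100% = DMSO vehicle control viability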
# RECORDED CONDITIONS: second compound 0.0949 µM; first compound 0.000949 µM; stronger effect = lower value
MEASUREMENT KIND: viability, T/C

* CC1(C)CCC(Nc2ncc(C(F)(F)F)c(-c3c[nH]c4c(P(C)(C)=O)c(C#N)ccc34)n2)CN1 (centres undefined) + CCn1c(-c2cc(N3CCN(C)CC3)cnc2C(C)OC)c2c3cc(ccc31)-c1csc(n1)CC(NC(=O)C1CC1C)C(=O)N1CCCC(N1)C(=O)OCC(C)(C)C2 | 9.88%
* CC1(C)CCC(Nc2ncc(C(F)(F)F)c(-c3c[nH]c4c(P(C)(C)=O)c(C#N)ccc34)n2)CN1 (centres undefined) + CCn1c(-c2cccnc2C(C)OC)c2c3cc(ccc31)N1CCOC(CC(NC(=O)C(C(C)C)N(C)C(=O)C3(F)CCN(C(=O)C#CC(C)(C)N(C)C)CC3)C(=O)N3CCCC(N3)C(=O)OCC(C)(C)C2)C1 | 19.5%
* CCc1c2c(nc3ccc(O)cc13)-c1cc3c(c(=O)n1C2)COC(=O)[C@]3(O)CC + CCn1c(-c2cccnc2C(C)OC)c2c3cc(ccc31)N1CCOC(CC(NC(=O)C(C(C)C)N(C)C(=O)C3(F)CCN(C(=O)C#CC(C)(C)N(C)C)CC3)C(=O)N3CCCC(N3)C(=O)OCC(C)(C)C2)C1 | 19.7%
* CCc1c2c(nc3ccc(O)cc13)-c1cc3c(c(=O)n1C2)COC(=O)[C@]3(O)CC + CCn1c(-c2cc(N3CCN(C)CC3)cnc2C(C)OC)c2c3cc(ccc31)-c1csc(n1)CC(NC(=O)C1CC1C)C(=O)N1CCCC(N1)C(=O)OCC(C)(C)C2 | 12.9%

---

# Test system: 941728-121-R-J1-PDC complex spheroid viability
# ASSAY DETAILS: Anticancer human tumor 941728-121-R-J1-PDC cell line growth inhibition [RAS];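 note: spheroids exposed to compounds for 7 days before readout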
# RECORDED CONDITIONS: curve of first compound; second compound 0.3 µM
pIC50: −log10 of the molar value.
MEASUREMENT KIND: pIC50

• C=CC(=O)Nc1cc(Nc2nccc(-c3cn(C)c4ccccc34)n2)c(OC)cc1N(C)CCN(C)C + CCn1c(-c2cc(N3CCN(C)CC3)cnc2C(C)OC)c2c3cc(ccc31)-c1csc(n1)CC(NC(=O)C1CC1C)C(=O)N1CCCC(N1)C(=O)OCC(C)(C)C2 = > 8.50
• CCC(CC)c1cc(NC2CCC(N)C2)n2nccc2n1 (stereo not drawn) + CCn1c(-c2cc(N3CCN(C)CC3)cnc2C(C)OC)c2c3cc(ccc31)-c1csc(n1)CC(NC(=O)C1CC1C)C(=O)N1CCCC(N1)C(=O)OCC(C)(C)C2 = > 7.50
• O=C(c1ccc(F)c(F)c1Nc1ccc(I)cc1F)N1CC(O)([C@@H]2CCCCN2)C1 + CCn1c(-c2cccnc2C(C)OC)c2c3cc(ccc31)N1CCOC(CC(NC(=O)C(C(C)C)N(C)C(=O)C3(F)CCN(C(=O)C#CC(C)(C)N(C)C)CC3)C(=O)N3CCCC(N3)C(=O)OCC(C)(C)C2)C1 = > 8.50
• CC(=O)OC12COC1CC(O)C1(C)C(=O)C(O)C3=C(C)C(OC(=O)C(O)C(NC(=O)OC(C)(C)C)c4ccccc4)CC(O)(C(OC(=O)c4ccccc4)C21)C3(C)C (stereo not drawn) + CCn1c(-c2cccnc2C(C)OC)c2c3cc(ccc31)N1CCOC(CC(NC(=O)C(C(C)C)N(C)C(=O)C3(F)CCN(C(=O)C#CC(C)(C)N(C)C)CC3)C(=O)N3CCCC(N3)C(=O)OCC(C)(C)C2)C1 = > 7.50
• CC1(O)CCCC1n1c(=O)c(C(F)F)cc2cnc(NC3CCN(S(C)(=O)=O)CC3)nc21 (stereo not drawn) + CCn1c(-c2cccnc2C(C)OC)c2c3cc(ccc31)N1CCOC(CC(NC(=O)C(C(C)C)N(C)C(=O)C3(F)CCN(C(=O)C#CC(C)(C)N(C)C)CC3)C(=O)N3CCCC(N3)C(=O)OCC(C)(C)C2)C1 = > 7.50
• C[C@@H](NC(=O)c1ncnc(N)c1Cl)c1ncc(C(=O)Nc2cc(C(F)(F)F)c(Cl)cn2)s1 + CCn1c(-c2cc(N3CCN(C)CC3)cnc2C(C)OC)c2c3cc(ccc31)-c1csc(n1)CC(NC(=O)C1CC1C)C(=O)N1CCCC(N1)C(=O)OCC(C)(C)C2 = > 7.50
• CCC(CC)c1cc(NC2CCC(N)C2)n2nccc2n1 (stereo not drawn) + CCn1c(-c2cccnc2C(C)OC)c2c3cc(ccc31)N1CCOC(CC(NC(=O)C(C(C)C)N(C)C(=O)C3(F)CCN(C(=O)C#CC(C)(C)N(C)C)CC3)C(=O)N3CCCC(N3)C(=O)OCC(C)(C)C2)C1 = > 7.50
• CC(C)NCC(C(=O)N1CCN(c2ncnc3c2C(C)CC3O)CC1)c1ccc(Cl)cc1 (stereo not drawn) + CCn1c(-c2cccnc2C(C)OC)c2c3cc(ccc31)N1CCOC(CC(NC(=O)C(C(C)C)N(C)C(=O)C3(F)CCN(C(=O)C#CC(C)(C)N(C)C)CC3)C(=O)N3CCCC(N3)C(=O)OCC(C)(C)C2)C1 = > 7.50

---

# System: 941728-121-R-J1-PDC complex spheroid viability
# ASSAY DETAILS: Anticancer human tumor 941728-121-R-J1-PDC cell line growth inhibition [RAS];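 note: spheroids exposed to compounds for 7 days before readout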
# RECORDED CONDITIONS: curve of first compound; second compound 0.00949 µM
MEASUREMENT KIND: IC50

- CC(=O)OC12COC1CC(O)C1(C)C(=O)C(O)C3=C(C)C(OC(=O)C(O)C(NC(=O)OC(C)(C)C)c4ccccc4)CC(O)(C(OC(=O)c4ccccc4)C21)C3(C)C (configuration not stated) + CCn1c(-c2cc(N3CCN(C)CC3)cnc2C(C)OC)c2c3cc(ccc31)-c1csc(n1)CC(NC(=O)C1CC1C)C(=O)N1CCCC(N1)C(=O)OCC(C)(C)C2: < 0.0316 µM
- CC1(O)CCCC1n1c(=O)c(C(F)F)cc2cnc(NC3CCN(S(C)(=O)=O)CC3)nc21 (configuration not stated) + CCn1c(-c2cc(N3CCN(C)CC3)cnc2C(C)OC)c2c3cc(ccc31)-c1csc(n1)CC(NC(=O)C1CC1C)C(=O)N1CCCC(N1)C(=O)OCC(C)(C)C2: < 0.0316 µM
- CC(=O)OC12COC1CC(O)C1(C)C(=O)C(O)C3=C(C)C(OC(=O)C(O)C(NC(=O)OC(C)(C)C)c4ccccc4)CC(O)(C(OC(=O)c4ccccc4)C21)C3(C)C (configuration not stated) + CCn1c(-c2cccnc2C(C)OC)c2c3cc(ccc31)N1CCOC(CC(NC(=O)C(C(C)C)N(C)C(=O)C3(F)CCN(C(=O)C#CC(C)(C)N(C)C)CC3)C(=O)N3CCCC(N3)C(=O)OCC(C)(C)C2)C1: < 0.0316 µM
- CC1(O)CCCC1n1c(=O)c(C(F)F)cc2cnc(NC3CCN(S(C)(=O)=O)CC3)nc21 (configuration not stated) + CCn1c(-c2cccnc2C(C)OC)c2c3cc(ccc31)N1CCOC(CC(NC(=O)C(C(C)C)N(C)C(=O)C3(F)CCN(C(=O)C#CC(C)(C)N(C)C)CC3)C(=O)N3CCCC(N3)C(=O)OCC(C)(C)C2)C1: < 0.0316 µM
- C=CC(=O)N1CCN(c2nc(OCC3CCCN3C)nc3c(F)c(-c4nc(N)cc(C)c4C(F)(F)F)c(Cl)cc23)C(C)C1 (configuration not stated) + CCn1c(-c2cccnc2C(C)OC)c2c3cc(ccc31)N1CCOC(CC(NC(=O)C(C(C)C)N(C)C(=O)C3(F)CCN(C(=O)C#CC(C)(C)N(C)C)CC3)C(=O)N3CCCC(N3)C(=O)OCC(C)(C)C2)C1: < 0.00316 µM
- NC1c2ccccc2OC12CCN(c1cnc3c(N4CCCc5ncccc54)n[nH]c3n1)CC2 (configuration not stated) + CCn1c(-c2cc(N3CCN(C)CC3)cnc2C(C)OC)c2c3cc(ccc31)-c1csc(n1)CC(NC(=O)C1CC1C)C(=O)N1CCCC(N1)C(=O)OCC(C)(C)C2: < 0.0316 µM
- Cc1nc(N2CCC3(CC2)COC(C)C3N)c(CO)nc1Sc1ccnc(N)c1Cl (configuration not stated) + CCn1c(-c2cc(N3CCN(C)CC3)cnc2C(C)OC)c2c3cc(ccc31)-c1csc(n1)CC(NC(=O)C1CC1C)C(=O)N1CCCC(N1)C(=O)OCC(C)(C)C2: < 0.0316 µM
